EXPERIMENTAL_SYSTEM: UniProt:Q12809
PROTOCOL: Inhibition of human ERG expressed in CHO cells by whole cell patch clamp technique
MEASURED_PROPERTY: pIC50
One number for each entry, as −log10 of the molar value.

Example compounds with recorded pIC50:
COc1c(N2CCNC(C)C2)c(F)cc2c(=O)c(C(=O)O)cn(C3CC3)c12 (stereo not drawn); 3.89
Oc1ccc(CCN2CCC(Nc3nc4ccccc4n3Cc3ccc(F)cc3)CC2)cc1; 9.00

## Input I am curious: what pIC50 value has been reported for O=C(OC1CC2CC3CC(C1)N2CC3O)c1c[nH]c2ccccc12 (stereo not drawn) ?
## Output 5.23

====

EXPERIMENTAL_SYSTEM: Voltage-gated inwardly rectifying potassium channel KCNH2 (Homo sapiens)
Sequence (Q12809 whole entry): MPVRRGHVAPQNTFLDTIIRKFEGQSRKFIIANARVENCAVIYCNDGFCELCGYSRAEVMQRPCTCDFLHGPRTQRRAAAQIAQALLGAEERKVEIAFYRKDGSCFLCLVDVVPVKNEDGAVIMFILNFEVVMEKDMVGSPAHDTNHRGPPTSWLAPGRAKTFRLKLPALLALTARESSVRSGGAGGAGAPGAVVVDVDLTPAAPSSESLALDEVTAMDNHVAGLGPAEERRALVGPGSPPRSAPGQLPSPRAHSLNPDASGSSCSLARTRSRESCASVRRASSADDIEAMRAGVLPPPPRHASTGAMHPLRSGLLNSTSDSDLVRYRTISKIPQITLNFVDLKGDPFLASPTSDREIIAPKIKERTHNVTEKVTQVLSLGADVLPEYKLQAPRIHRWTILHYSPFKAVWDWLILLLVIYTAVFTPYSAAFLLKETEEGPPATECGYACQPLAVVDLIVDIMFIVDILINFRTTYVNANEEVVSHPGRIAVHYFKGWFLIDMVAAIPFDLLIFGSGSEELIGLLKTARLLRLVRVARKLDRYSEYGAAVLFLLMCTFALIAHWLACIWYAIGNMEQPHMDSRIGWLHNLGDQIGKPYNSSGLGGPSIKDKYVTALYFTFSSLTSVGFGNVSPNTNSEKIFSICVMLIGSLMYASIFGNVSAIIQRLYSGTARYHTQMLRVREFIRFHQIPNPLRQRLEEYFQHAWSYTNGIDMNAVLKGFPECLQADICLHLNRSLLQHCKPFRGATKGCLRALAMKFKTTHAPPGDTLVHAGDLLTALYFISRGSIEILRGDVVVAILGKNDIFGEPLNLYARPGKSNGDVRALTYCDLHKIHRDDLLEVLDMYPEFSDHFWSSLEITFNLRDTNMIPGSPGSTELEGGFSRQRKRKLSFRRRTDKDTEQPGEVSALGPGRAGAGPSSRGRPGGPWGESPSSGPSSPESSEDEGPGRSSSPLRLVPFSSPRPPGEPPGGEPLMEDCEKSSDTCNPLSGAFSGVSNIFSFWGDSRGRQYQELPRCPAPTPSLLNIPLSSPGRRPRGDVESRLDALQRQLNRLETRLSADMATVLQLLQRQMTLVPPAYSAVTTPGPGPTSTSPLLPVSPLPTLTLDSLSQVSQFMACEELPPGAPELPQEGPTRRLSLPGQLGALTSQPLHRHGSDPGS
PROTOCOL: Inhibition of human ERG expressed in CHO cells by whole cell patch clamp technique
EXPERIMENTAL_PARAMETERS: human, cho
MEASURED_PROPERTY: pIC50
Numbers only.

Solved entries:
COc1ccc(C2CCN(CC[C@H]3CCOc4ccccc43)CC2)cc1OC; 6.7
CN(c1nccc(=O)[nH]1)C1CCN(c2nc3ccccc3n2Cc2ccc(F)cc2)CC1; 6.36
Cc1cc2c(s1)Nc1ccccc1N=C2N1CCN(C)CC1; 6.74
CN1CCC[C@H]1c1cccnc1; 3.61

Pending molecule:
## Input // returns reported pIC50 for input "CC[C@H]1OC(=O)[C@H](C)[C@@H](O[C@H]2C[C@@](C)(OC)[C@@H](O)[C@H](C)O2)[C@H](C)[C@@H](O[C@@H]2O[C@H](C)C[C@H](N(C)C)[C@H]2O)[C@](C)(OC)C[C@@H](C)C(=O)[C@H](C)[C@@H](O)[C@]1(C)O"
## Output 4.23
